Give measured Ki for each item. Keep answers brief.
Measurement target: NET (Homo sapiens)
Sequence (P23975 whole entry): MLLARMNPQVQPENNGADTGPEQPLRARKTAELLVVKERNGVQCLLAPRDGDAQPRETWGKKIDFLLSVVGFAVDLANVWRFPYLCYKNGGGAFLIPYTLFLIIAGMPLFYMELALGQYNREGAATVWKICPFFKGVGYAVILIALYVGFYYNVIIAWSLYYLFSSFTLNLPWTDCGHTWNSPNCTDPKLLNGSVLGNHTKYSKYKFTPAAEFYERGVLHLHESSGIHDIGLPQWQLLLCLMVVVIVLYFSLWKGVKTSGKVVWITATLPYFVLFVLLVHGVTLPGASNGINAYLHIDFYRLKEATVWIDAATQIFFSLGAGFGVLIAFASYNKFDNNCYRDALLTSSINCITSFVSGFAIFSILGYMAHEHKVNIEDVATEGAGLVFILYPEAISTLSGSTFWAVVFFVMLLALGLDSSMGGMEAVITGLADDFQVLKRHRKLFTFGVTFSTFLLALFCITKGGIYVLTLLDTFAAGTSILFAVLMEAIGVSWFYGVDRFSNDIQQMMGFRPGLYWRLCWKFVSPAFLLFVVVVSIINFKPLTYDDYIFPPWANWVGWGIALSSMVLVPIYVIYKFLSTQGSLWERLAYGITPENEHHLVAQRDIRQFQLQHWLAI
Method summary: hNET membrane radioligand binding assay (3H-nisoxetine)
Set-up: expressed in transfected cells; host or cells: HEK-293
Experimental parameters: hNET membranes (HEK-293), 1.0 nM 3H-nisoxetine; read-out: NET pKi (converted)

Request: Dear colleague, please send me the reported Ki for COCC(Oc1cccc(Cl)c1Cl)C1CCNC1 (centres unmarked) when you can.
Response: ≤ 10 nM

Request: Dear colleague, please send me the reported Ki for "FC(F)(F)c1cc(Cl)ccc1O[C@H](C1CCOCC1)[C@@H]1CCNC1" when you can.
Response: ≤ 100 nM

Request: Dear colleague, please send me the reported Ki for "FC(F)(F)c1cccc(O[C@@H](C2CCOCC2)[C@H]2CCNC2)c1" when you can.
Response: ≤ 100 nM

Request: Dear colleague, please send me the reported Ki for "COC[C@H](Oc1ccc(Cl)cc1C)[C@H]1CCNC1" when you can.
Response: ≤ 10 nM

Request: Dear colleague, please send me the reported Ki for "COC[C@@H](Oc1cccc(Cl)c1C(F)(F)F)[C@H]1CCNC1" when you can.
Response: ≤ 10 nM
